Provide the recorded koff for the entries that follow.
target-under-test: recombinant mouse prion protein immobilised for SPR (mPrP) (Mus musculus, UniProt P04925)
Sequence (P04925 23-230): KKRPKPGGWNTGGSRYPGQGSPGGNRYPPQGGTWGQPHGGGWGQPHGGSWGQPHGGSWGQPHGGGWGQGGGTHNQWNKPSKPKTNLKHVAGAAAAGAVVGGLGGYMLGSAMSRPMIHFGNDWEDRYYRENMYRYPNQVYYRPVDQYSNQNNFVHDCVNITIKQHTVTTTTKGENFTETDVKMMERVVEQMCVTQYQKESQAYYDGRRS
procedure-summary: SPR
condition: both partners purified
Give your result as the value with the unit written after it.

What does the data say about its koff? Entry: pomolog lcY50A (POM1 scFv, light chain Y50A) (scFv, V domains shown) VH: QVQLQQSGTELVMPGASVKMSCKASGYTFTDYWMHWVKQRPGQGLEWIGSIDPSDSYTSHNEKFKGKATLTVDESSSTAYMQLSSLTSEDSAVYFCSRSGYGYYAMEYWGQGTSVTVSS VL: DIVLTQSPAILSVSPGERVSFSCRASQNIGTSIHWYQQRTNESPRLIIKAASESISGIPSRFSGSGSGTDFTLSINSVESEDIADYYCQQSNTWPYTFGGGTKLELK 0.0082 s⁻¹

What does the data say about its koff? Entry: pomolog hcD52A (POM1 scFv, heavy chain D52A) (scFv, V domains shown) VH: QVQLQQSGTELVMPGASVKMSCKASGYTFTDYWMHWVKQRPGQGLEWIGSIAPSDSYTSHNEKFKGKATLTVDESSSTAYMQLSSLTSEDSAVYFCSRSGYGYYAMEYWGQGTSVTVSS VL: DIVLTQSPAILSVSPGERVSFSCRASQNIGTSIHWYQQRTNESPRLIIKYASESISGIPSRFSGSGSGTDFTLSINSVESEDIADYYCQQSNTWPYTFGGGTKLELK 0.046 s⁻¹

What does the data say about its koff? Entry: pomolog hcD55A (POM1 scFv, heavy chain D55A) (scFv, V domains shown) VH: QVQLQQSGTELVMPGASVKMSCKASGYTFTDYWMHWVKQRPGQGLEWIGSIDPSASYTSHNEKFKGKATLTVDESSSTAYMQLSSLTSEDSAVYFCSRSGYGYYAMEYWGQGTSVTVSS VL: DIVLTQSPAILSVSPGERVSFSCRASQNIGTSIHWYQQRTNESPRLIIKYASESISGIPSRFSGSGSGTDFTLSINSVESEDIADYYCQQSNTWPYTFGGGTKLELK 0.037 s⁻¹

The measurements presented in this section are drawn from paper PMC9371974.
